Every entry's value here was drawn from patent US20250163016A1.

Exercise: state measured AUC(0-t) for each of the compounds provided.
- Assay explanation: Pharmacokinetics of oral administration of mice under different solvent conditions
- Type: in vivo
- Experimental parameters: male, Balb/c, mouse, plasma, 5 mg/kg, p.o. 5.0 mg/kg, solvent 0.5% sodium methylcellulose aqueous solution
Entry rule: numbers only, all in ng·h/mL.

Lookup: Could you share which AUC(0-t) value was measured for "CC(C)(O)Cn1ncc2cc(-c3c(C#N)cc(N4CCC(N)CC4)nc3-c3ccc(C#N)c(F)c3)c(F)cc21" ?
Found: 3220

Lookup: Request: COc1ccc(-c2c(-c3ccc(C#N)c(F)c3)nc(N3CCC(N)CC3)n(C)c2=O)cc1F [CC-90011, reference compound]
Found: 965
